Listed below: IC50 values for each entry.
System: non-malignant CHO-K1 cell line
assaySummary: Sulforhodamine B (SRB) growth inhibition / cytotoxicity, CHO-K1
Format: cell-based
settings: Cricetulus griseus, 24 h, mean ± SE, read-out: IC50 (mM) CHO-K1 cells
endpoint: IC50

molecule: C=CCSC[C@H](NC(=O)C(C)c1ccc2cc(OC)ccc2c1)C(=O)OCC (mixture of isomers) [11b]
measurement: > 0.2 mM
--
molecule: C=CCSC[C@H](NC(=O)Cc1ccccc1Nc1c(Cl)cccc1Cl)C(=O)OC [10a]
measurement: 0.18 mM
--
molecule: CC(=O)Oc1ccccc1C(=O)O [Aspirin, reference compound]
measurement: > 0.2 mM

---

Listed below: melting point values for each entry.
endpoint: melting point

compound: C=CCSC[C@H](NC(=O)C(C)c1ccc(CC(C)C)cc1)C(=O)OCCC (mixture of isomers) [12c]
endpoint: melting point
measurement: 58 to 60 °C

compound: C=CCSC[C@H](NC(=O)C(C)c1ccc(CC(C)C)cc1)C(=O)OC (mixture of isomers) [12a]
endpoint: melting point
measurement: 89 to 91 °C

compound: C=CCSC[C@H](NC(=O)C(C)c1ccc(CC(C)C)cc1)C(=O)OCC (mixture of isomers) [12b]
endpoint: melting point
measurement: 65 to 67 °C
